target: Inhibitor of NF-kappa-B kinase (IKK) (Homo sapiens, UniProt O14920+O15111+Q9Y6K9); experiment: Inhibition of IKK
Sequence (O14920 whole entry): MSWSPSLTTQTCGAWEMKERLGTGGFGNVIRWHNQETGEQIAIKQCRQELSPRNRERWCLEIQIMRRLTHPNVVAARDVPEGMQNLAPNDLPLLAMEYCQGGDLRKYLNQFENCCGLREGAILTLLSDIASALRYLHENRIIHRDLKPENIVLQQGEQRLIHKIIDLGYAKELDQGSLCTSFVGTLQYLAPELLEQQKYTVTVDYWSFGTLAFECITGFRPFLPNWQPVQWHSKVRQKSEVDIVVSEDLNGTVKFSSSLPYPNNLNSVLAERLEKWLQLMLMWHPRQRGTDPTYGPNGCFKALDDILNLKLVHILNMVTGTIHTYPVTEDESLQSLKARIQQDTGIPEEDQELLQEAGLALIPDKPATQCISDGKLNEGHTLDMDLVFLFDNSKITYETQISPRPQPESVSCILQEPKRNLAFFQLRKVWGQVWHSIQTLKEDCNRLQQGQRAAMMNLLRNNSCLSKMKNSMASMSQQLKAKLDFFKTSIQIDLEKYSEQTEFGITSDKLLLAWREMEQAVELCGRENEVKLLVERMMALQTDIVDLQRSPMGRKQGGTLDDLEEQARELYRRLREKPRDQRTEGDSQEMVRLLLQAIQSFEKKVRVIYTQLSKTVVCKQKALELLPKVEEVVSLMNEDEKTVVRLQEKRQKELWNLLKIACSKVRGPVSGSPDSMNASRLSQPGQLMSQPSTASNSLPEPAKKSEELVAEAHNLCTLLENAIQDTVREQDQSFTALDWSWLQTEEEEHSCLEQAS
Sequence (O15111 whole entry): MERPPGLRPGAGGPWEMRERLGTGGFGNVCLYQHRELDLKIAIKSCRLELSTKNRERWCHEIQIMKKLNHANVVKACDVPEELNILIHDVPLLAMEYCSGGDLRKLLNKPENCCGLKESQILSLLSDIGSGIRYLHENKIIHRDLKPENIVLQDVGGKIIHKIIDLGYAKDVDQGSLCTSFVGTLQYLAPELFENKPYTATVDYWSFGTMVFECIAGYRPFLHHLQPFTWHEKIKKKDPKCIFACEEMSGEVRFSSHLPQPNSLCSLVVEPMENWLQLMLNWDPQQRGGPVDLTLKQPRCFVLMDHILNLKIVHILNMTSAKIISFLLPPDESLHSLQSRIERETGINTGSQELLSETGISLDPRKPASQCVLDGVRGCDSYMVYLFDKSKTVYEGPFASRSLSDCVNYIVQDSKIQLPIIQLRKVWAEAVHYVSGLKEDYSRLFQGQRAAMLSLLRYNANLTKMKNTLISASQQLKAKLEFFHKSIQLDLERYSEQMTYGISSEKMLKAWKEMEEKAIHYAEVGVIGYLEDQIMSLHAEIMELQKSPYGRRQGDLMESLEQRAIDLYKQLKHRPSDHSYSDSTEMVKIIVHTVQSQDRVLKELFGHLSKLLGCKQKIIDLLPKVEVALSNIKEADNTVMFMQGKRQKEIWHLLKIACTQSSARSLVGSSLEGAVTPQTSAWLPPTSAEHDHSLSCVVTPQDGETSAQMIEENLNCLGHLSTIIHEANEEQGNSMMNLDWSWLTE
Sequence (Q9Y6K9 whole entry): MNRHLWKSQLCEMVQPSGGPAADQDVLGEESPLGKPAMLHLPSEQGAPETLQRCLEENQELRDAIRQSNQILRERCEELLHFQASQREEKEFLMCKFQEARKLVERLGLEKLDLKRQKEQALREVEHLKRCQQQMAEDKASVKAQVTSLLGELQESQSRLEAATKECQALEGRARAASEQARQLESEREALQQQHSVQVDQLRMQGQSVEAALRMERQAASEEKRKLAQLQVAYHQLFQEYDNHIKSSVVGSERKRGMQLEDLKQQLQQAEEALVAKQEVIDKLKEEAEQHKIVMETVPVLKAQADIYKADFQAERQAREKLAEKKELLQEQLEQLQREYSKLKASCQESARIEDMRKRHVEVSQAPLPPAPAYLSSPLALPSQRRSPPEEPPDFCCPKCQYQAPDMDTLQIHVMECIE
reported endpoint: IC50

Enquiry: Param readout = IC50; param system = Inhibitor of NF-kappa-B kinase (IKK) (Homo sapiens, UniProt O14920+O15111+Q9Y6K9); param query = "COc1cc2ncc3c(N)nc4c(C)c(N)ccc4c3c2cc1OC" ; response: value
Return: > 10 µM

---

molecular target: MAP kinase-activated protein kinase 2 (Homo sapiens, UniProt P49137); experiment: Inhibition of MK2
Sequence (P49137 whole entry): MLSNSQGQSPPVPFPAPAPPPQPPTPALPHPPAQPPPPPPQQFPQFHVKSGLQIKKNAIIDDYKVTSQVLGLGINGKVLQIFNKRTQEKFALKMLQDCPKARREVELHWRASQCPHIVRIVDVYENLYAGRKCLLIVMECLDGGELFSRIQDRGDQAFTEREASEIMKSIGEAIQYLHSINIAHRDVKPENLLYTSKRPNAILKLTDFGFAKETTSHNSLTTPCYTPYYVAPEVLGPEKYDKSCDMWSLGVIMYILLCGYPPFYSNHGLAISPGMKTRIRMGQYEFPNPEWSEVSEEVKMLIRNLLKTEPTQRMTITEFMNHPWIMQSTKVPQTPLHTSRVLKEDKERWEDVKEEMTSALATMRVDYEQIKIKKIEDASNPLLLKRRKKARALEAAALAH
reported endpoint: IC50

Enquiry: Given the compound "COc1cc2ncc3c(N)nc4c(C)c(N)ccc4c3c2cc1OC" , what is its reported IC50?
Return: > 10 µM
